Test system: PDE4
Experiment: PDE4 Assay Procedure ([3H]-cAMP SPA)
Format: biochemical
Details: 15 nM [3H]-cAMP, 1 hour at room temperature, SPA beads; compounds tested from 10 μM to 10 pM
measured-endpoint: IC50 (nM)
Write the number in nM without appending the unit.

Examples from the recorded data:
CC1(C)CCc2c(N3CCCC3)nc3sc4c(NCc5ccncc5)ncnc4c3c2C1 [Example 24] :: 14
CCOC(=O)N1CCN(CCNc2ncnc3c2sc2nc(N(C)C)c4c(c23)CC(C)(C)CC4)CC1 [Example 43] :: 7.9
CC1(C)CCc2c(N3CCCC3)nc3sc4c(NCCN5CCOCC5)ncnc4c3c2C1 [Example 23] :: 8.1
CC1(C)CCc2c(-c3ccco3)nc3sc4c(NCCN5CCOCC5)ncnc4c3c2C1 [Example 62] :: 3.8
CC(C)Cc1nc2sc3c(NCCCN4CCCC4=O)ncnc3c2c2c1CCC(C)(C)C2 [Example 60] :: 4.8
CN(C)c1nc2sc3c(NCc4cccnc4)ncnc3c2c2c1CC(C)(C)C2 [Example 79] :: 4.6
CC1(C)CCc2c(N3CCCC3)nc3sc4c(NCc5cccnc5)ncnc4c3c2C1 [Example 25] :: 1.5
CC1(C)CCc2c(N3CCSCC3)nc3sc4c(NCc5ccccn5)ncnc4c3c2C1 [Example 16] :: 3

Could you now look at the following compound, please?
State, in one line, measured IC50 of CCN(C)c1nc2sc3c(NCC(=O)NCC4CCCO4)ncnc3c2c2c1CCC(C)(C)C2 (stereo not drawn) [Example 54]
10
